tested on: SF-539 CNS; assay: NCI-60 one-dose screen, 48 h; conditions: 10 µM unless noted
Compounds without any hit were thinned out: in the full panel of roughly 83,000, 20% have a hit. Activity calls are given as the source filed them. The calls were made as follows: active = growth percent below 10; inactive = the rest.
Labels: YES (active), NO (inactive)

| compound | group.label |
| --- | --- |
| O=C(CCCCCCN1CC(=O)N2[C@@H](c3cccs3)c3[nH]c4ccccc4c3C[C@H]2C1=O)NO | NO |
| CC(Nc1c(C#N)cnc2ccc(-c3cncc(-c4n[nH]c(=O)o4)c3)cc12)c1ccccc1 (configuration not stated) | YES |
| C#CCN(C)CCCOc1ccc(NC(=O)CCCCCCCCC(=O)NO)cc1Cl | NO |
| CN1CCN(c2ccc(Nc3nc(NCCNC(=O)c4ccccc4)c4sccc4n3)cc2)CC1 | YES |
| C/C(=N/N)c1nnn(-c2ccc(Br)cc2)c1C | NO |
| Cc1ccc(S(=O)(=O)c2nc(-c3ccc(F)cc3)oc2S(C)(=O)=O)cc1 | NO |
| CSc1ccc(C(=NNS(=O)(=O)c2ccc(C)cc2)c2ccc(Cl)cc2)cc1 | NO |
| CCOc1cccc(/C(N)=N/C(N)=N/c2nc3ccccc3s2)c1 | NO |
| CC1=C(C)C(=O)C(Nc2ccc(C)c(C)c2)=C(Br)C1=O | NO |
| Cc1ccc2c(n1)C(=O)C(Cl)=C(Nc1ccc(C(F)(F)F)cc1)C2=O | NO |
| CCCCCCCCCCCC(=O)NC(C)(C)C(=O)N1CCCC1C(=O)NC(C)(C)C(=O)NC(C)(C)C(=O)N1CCCC1C(=O)NC(C)(C)C(=O)NC(C)(C)C(=O)N1CCCC1C(=O)NC(C)C(=O)NCCC(=O)NC(C)C(=O)NC(C)(C)C(=O)NC(C)(C)C(=O)NC(C)(C)C(=O)NCCC(=O)NC(C)(C)C(=O)NC(C)(C)C(=O)NC(C)(C)C(=O)NC(C)C(=O)NCCC(=O)O (configuration not stated) | YES |
| CCOC(=O)c1cccnc1Nc1ccc(NC(=O)Nc2ccc(Cl)c(C(F)(F)F)c2)cc1 | NO |
| COCCOc1ccc2ncc(C#Cc3cncc(C(=O)Nc4ccc(CN5CCN(C)CC5)c(C(F)(F)F)c4)c3)n2n1 | YES |
| CN1CCN(Cc2ccc(NC(=O)c3cncc(C#Cc4cnc5ccc(OCC(F)F)nn45)c3)cc2C(F)(F)F)CC1 | YES |
| Cc1ccc(/C=N/Nc2nc(Nc3ccccc3)nc(Nc3ccc(S(N)(=O)=O)cc3)n2)cc1 | NO |
| O=C(/C=C/c1ccc(F)cc1)Nc1cccc2cccnc12 | NO |
| COc1ccc([C@H]2C(=O)N(c3cc(OC)c(OC)c(OC)c3)[C@@H]2c2ccc(OC)c(O)c2)cc1 | YES |
| CC(=O)/C(N=Nc1ccc2oc(=O)ccc2c1)=C(\C)O | NO |
| CCOC(=O)c1c(NC(=O)c2cccc(C(F)(F)F)c2)sc2c3c(ccc12)OCN(C)C3 | YES |
| Cc1ccc(-c2nc(SCC(=O)c3ccccc3)nc(Nc3ccc(S(N)(=O)=O)cc3)c2C#N)cc1 | NO |
| COc1ccc(OC)c(CCn2cncc2-c2c[nH]c3ccc(Cl)cc23)c1 | NO |
| O=C(Nc1ccc(N2CCOCC2)cc1)Nc1ccc2c(ccn2C(=O)c2cccc(F)c2)c1 | NO |
| COc1ccc2c(c1)C=CC1(O2)Oc2ccc(OC)cc2C=C1C (configuration not stated) | YES |
| Cc1ccc(C)c(NC2=C(Cl)C(=O)c3nc(C)ccc3C2=O)c1 | YES |
| CN(C)CC(=O)Nc1nc(-c2cccc(NS(=O)(=O)c3cccc4c(N(C)C)cccc34)c2)cs1 | NO |
| Nc1cc(C(=O)N/N=C\c2ccc(OC(F)F)c(OC3CCCC3)c2)nn1CC(O)c1ccccc1 (configuration not stated) | NO |
| Cn1c(SCC(=O)c2ccco2)nc2ccccc2c1=O | NO |
| COc1ccc(C2C(C#N)=C(/N=C/c3ccc(Cl)cc3)Oc3c2sc2c(C)cccc32)cc1 (configuration not stated) | YES |
| CC1=C(C)C(=O)C(Nc2cccc(C(F)(F)F)c2)=C(Br)C1=O | NO |
| CC(C)NC(=O)c1cc(-c2ccc(NC(=O)Nc3ccc(F)c(C(F)(F)F)c3)cc2)nc2cccnc12 | NO |
| CN1CCN(c2ccc(C(=O)/C=C/c3cc(F)cc(C(F)(F)F)c3)cc2)CC1 | NO |
| Cc1[nH]c(C(=O)Nc2ccccc2OCc2cccc(C(=O)NC3CCNC3)c2)c(Cl)c1Cl (configuration not stated) | YES |
| C#C[C@]1(O)CC[C@H]2[C@@H]3CC=C4c5sc(Nc6cc(Cl)ccc6OC)nc5CC[C@]4(C)[C@H]3CC[C@@]21C | YES |
| CCOC(=O)c1cccc(NC2=C(Cl)C(=O)C(C)=C(C)C2=O)c1 | NO |
| Brc1ccc(-c2cc(-c3ccc4c(c3)OCCO4)n[nH]2)s1 | NO |
| COc1ccc2[nH]cc(/C=N/Nc3ccnc4cc(Cl)ccc34)c2c1 | YES |
| Cn1cc(-c2cc3ncnc(Nc4ccc(CC(=O)Nc5nc(C(C)(C)C)cs5)cc4)c3s2)cn1 | NO |
